These data points were gathered from the supplement of paper PMC3545927.

- TARGET DESC: furin, P09958;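 also: purified furin at 1:10 enzyme:substrate in 50 mM HEPES pH 7.5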
- Sequence (P09958 whole entry): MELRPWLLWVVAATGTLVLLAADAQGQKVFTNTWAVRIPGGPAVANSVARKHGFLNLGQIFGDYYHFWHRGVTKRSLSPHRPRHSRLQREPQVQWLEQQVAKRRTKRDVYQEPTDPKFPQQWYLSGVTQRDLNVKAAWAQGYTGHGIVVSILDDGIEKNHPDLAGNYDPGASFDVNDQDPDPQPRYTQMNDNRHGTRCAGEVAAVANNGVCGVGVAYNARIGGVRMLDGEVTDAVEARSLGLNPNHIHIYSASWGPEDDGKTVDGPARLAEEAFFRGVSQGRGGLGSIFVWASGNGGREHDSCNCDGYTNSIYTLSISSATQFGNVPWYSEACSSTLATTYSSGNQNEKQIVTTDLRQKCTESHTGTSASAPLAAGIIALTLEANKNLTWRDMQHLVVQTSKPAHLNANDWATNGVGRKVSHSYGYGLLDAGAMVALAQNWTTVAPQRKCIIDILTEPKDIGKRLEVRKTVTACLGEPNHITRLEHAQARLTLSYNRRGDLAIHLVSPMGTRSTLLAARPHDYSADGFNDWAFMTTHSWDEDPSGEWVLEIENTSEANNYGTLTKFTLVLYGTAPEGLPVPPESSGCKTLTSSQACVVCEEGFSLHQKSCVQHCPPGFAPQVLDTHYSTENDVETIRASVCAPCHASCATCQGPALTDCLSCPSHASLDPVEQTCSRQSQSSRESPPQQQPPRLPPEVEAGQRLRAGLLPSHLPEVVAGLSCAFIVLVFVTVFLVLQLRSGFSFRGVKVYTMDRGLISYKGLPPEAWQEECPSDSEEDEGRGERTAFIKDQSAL
- TEST METHOD NOTES: furin cleavage Z-score vs untreated control; higher = more cleavage, active = 3.5 or more, inactive = 1 or less, 8 variable residues between constant flanks
- PARTICULARS: 30 min
Some of the results follow. No count for the full screen is at hand.
Outcomes: active, inactive

In [3]: df
Out[3]:
                  residue_string  discrete_label
 0  CAIFKRKKRIAGNASASA [FS-1212]          active
 1  CAKQFRALRSAGNASASA [FS-1595]          active
 2  CARIVRSLMPAGNASASA [FS-2956]          active
 3   CAEVCTSTWVAGNASASA [HC2200]        inactive
 4   CAKTNRKTRFAGNASASA [FS-345]          active
 5   CAMEYCSQHLAGNASASA [HC1709]        inactive
 6   CADMMEECSQAGNASASA [HC1806]        inactive
 7   CAQLVRALRSAGNASASA [FS-848]          active
 8  CAMDARTDRSAGNASASA [FS-1375]        inactive
 9   CAWNKRKKRQAGNASASA [FS-968]          active
10   CAVECCSMSYAGNASASA [HC2012]        inactive
11    CAIGGAGNNTAGNASASA [HC446]        inactive
12   CAKNGRPLRSAGNASASA [FS-341]        inactive
13  CARARRHSDGAGNASASA [FS-2480]          active
14   CARQERNKRFAGNASASA [FS-711]          active
15    CAAGTRTIASAGNASASA [HC703]        inactive
16  CARLHRFWEGAGNASASA [FS-1739]        inactive
17  CAEMKRKKRVAGNASASA [FS-1521]          active
18   CAWEMEECSQAGNASASA [HC1788]        inactive
19    CADMMMNWSPAGNASASA [HC321]        inactive
